target: TBK1 (Homo sapiens (Human)); assay: TBK1 low ATP kinase assay (in vitro assay 1); assay type: biochemical; details: in vitro assay 1, read-out: TBK1 low ATP kinase assay IC50
Sequence (Q9UHD2 whole entry): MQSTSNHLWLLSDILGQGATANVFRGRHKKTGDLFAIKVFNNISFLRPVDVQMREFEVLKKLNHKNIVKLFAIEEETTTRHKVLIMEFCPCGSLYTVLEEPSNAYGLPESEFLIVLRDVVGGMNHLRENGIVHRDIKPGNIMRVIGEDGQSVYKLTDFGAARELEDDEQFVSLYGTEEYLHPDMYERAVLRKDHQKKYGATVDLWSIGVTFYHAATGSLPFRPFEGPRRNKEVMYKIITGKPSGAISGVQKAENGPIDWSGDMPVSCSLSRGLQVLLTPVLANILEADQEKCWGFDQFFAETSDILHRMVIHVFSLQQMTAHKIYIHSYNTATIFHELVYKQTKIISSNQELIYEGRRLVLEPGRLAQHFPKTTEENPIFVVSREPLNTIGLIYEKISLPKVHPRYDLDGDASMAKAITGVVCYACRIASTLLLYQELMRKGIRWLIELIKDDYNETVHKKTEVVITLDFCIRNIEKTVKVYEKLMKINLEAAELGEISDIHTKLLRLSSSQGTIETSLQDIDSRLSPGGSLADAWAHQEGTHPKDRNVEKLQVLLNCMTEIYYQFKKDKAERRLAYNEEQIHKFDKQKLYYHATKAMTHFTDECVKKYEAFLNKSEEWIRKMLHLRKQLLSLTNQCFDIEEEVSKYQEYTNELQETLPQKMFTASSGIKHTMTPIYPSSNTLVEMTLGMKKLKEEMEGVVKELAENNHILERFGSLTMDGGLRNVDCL
pIC50: −log10 of the molar value.
PROPERTY_NAME: pIC50

Guide cases for pIC50, answers given:
COMPOUND: O=C(C1CC1)N1CCN(Cc2ccnc(Nc3nc4ccc(-c5nc(C6CCCC6)no5)cc4[nH]3)c2)CC1 [Example 19.01]
TARGET_OR_TEST_SYSTEM: TBK1 (Homo sapiens (Human))
pIC50: 6.38

COMPOUND: CC(c1ccnc(Nc2nc3ccc(-c4cc(N5CC(F)(F)C5)ncn4)cc3[nH]2)c1)N1CCN(C(=O)CC(F)(F)F)CC1 (single isomer, unassigned) [Example 116.03]
TARGET_OR_TEST_SYSTEM: TBK1 (Homo sapiens (Human))
pIC50: 8.89

COMPOUND: CC(C)(C)OC(=O)N1CCN(Cc2ccnc(Nc3nc4ccc(-c5ccnc(F)c5)cc4[nH]3)c2)CC1 [Example 137.01]
TARGET_OR_TEST_SYSTEM: TBK1 (Homo sapiens (Human))
pIC50: 7.89

COMPOUND: COc1ccc(-c2ccc3nc(Nc4cc(CN5CCN(C(=O)OC(C)(C)C)CC5)ccn4)[nH]c3c2)cn1 [Example 13.01]
TARGET_OR_TEST_SYSTEM: TBK1 (Homo sapiens (Human))
pIC50: 5.90

COMPOUND: COc1ncccc1-c1ccc2nc(Nc3cc(CN4CCN(C(=O)C5CC5)CC4)ccn3)[nH]c2c1 [Example 15.03]
TARGET_OR_TEST_SYSTEM: TBK1 (Homo sapiens (Human))
pIC50: 5.42

COMPOUND: CC(C)(C)Cc1nc(-c2ccc3nc(Nc4cc(CN5CCN(c6ccccc6Cl)CC5)ccn4)[nH]c3c2)no1 [Example 22.02]
TARGET_OR_TEST_SYSTEM: TBK1 (Homo sapiens (Human))
pIC50: 6.11

COMPOUND: O=C(C1CC1)N1CCN(Cc2ccnc(Nc3nc4ccc(-c5nc(Cc6ccccc6)no5)cc4[nH]3)c2)CC1 [Example 21.01]
TARGET_OR_TEST_SYSTEM: TBK1 (Homo sapiens (Human))
pIC50: 6.71

COMPOUND: O=C(C1CC1)N1CCN(Cc2ccnc(Nc3nc4ccc(-c5cc(NC6CC6)ncn5)cc4[nH]3)c2)CC1 [Example 151.03]
TARGET_OR_TEST_SYSTEM: TBK1 (Homo sapiens (Human))
pIC50: 9.00

(A) O=C(CC(F)(F)F)N1CCN(Cc2ccnc(Nc3nc4ccc(-c5cc(NC6CC6)ncn5)cc4[nH]3)c2)CC1 [Example 151.02]
(B) O=C(CC(F)(F)F)N1CCN(Cc2ccnc(Nc3nc4ccc(-c5cc(N6CCOCC6)ncn5)cc4[nH]3)c2)CC1 [Example 94.01]
(C) COc1cncnc1-c1ccc2nc(Nc3cc(CN4CCN(S(=O)(=O)C5CCOCC5)CC4)ccn3)[nH]c2c1 [Example 35.01.14]
Form: Sort by [pIC50] Order [ ascending ] Rank them, then answer with their labels in that order.
C, B, A
